- tgt: human thrombin (Homo sapiens)
- experiment description: Inhibition of the amidase activity of thrombin (Kass)
- Type: biochemical
- experimental parameters: mean over a range of test compound concentrations; […]
# reported Kass × 10^6 (L/mole) Human Thrombin; entries follow

See these solved cases before continuing.
| compound | tgt | Kass × 10^6 (L/mole) Human Thrombin |
| --- | --- | --- |
| N=C(N)c1ccc(CNC(=O)[C@@H]2CCCN2C(=O)[C@@H](CCc2ccccc2)NCC(=O)O)cc1 | human thrombin (Homo sapiens) | 30 × 10^6 L/mole |
| Cl.Cl.Cl.N=C(N)NCCCCNC(=O)[C@@H]1CCCN1C(=O)[C@@H]1NCC[C@H]2CCCC[C@H]21 | human thrombin (Homo sapiens) | 63 × 10^6 L/mole |
| N=C(N)c1ccc(CNC(=O)[C@@H]2CCCN2C(=O)[C@@H](CC2CCCCC2)NCC(=O)O)cc1 | human thrombin (Homo sapiens) | 4,100 × 10^6 L/mole |
| CCS(=O)(=O)N[C@H](CC1CCCCC1)C(=O)N1CCC[C@H]1C(=O)NCc1ccc(N)cc1F | human thrombin (Homo sapiens) | 5.0 × 10^6 L/mole |
| Cl.Cl.N=C(N)c1ccc(CNC(=O)C2CC3CCCCC3N2C(=O)C2NCCC3CCCCC32)cc1 (stereo not drawn) | human thrombin (Homo sapiens) | 38. × 10^6 L/mole |

# Kass × 10^6 (L/mole) Human Thrombin of CCS(=O)(=O)N[C@H](CC1CCCCC1)C(=O)N1CCC[C@H]1C(=O)NCc1ccc(C(=N)N)cc1F.Cl = 970 × 10^6 L/mole

// Kass × 10^6 (L/mole) Human Thrombin value for Nc1ccc(CNC(=O)[C@@H]2CCCN2C(=O)[C@@H](CC2CCCCC2)NCC(=O)O)c(F)c1 : 15 × 10^6 L/mole

What the record says about N=C(N)c1ccc(CNC(=O)[C@@H]2C[C@@H]3CCCC[C@@H]3N2C(=O)[C@H]2CCCCN2)cc1 [Example 20, D-hPro-Ohi-p-NHCH2 C6 H4 C(NH)NH2.3HCl] : Kass × 10^6 (L/mole) Human Thrombin is 10 × 10^6 L/mole

Consider Cl.Cl.N=C(N)c1ccc(CNC(=O)CN(CCc2ccccc2)C(=O)[C@H]2CCCCN2)cc1 . Its measured Kass × 10^6 (L/mole) Human Thrombin is 3.6 × 10^6 L/mole
